# Tested on: JURKAT
# test.protocol: selective drug sensitivity score (sDSS, relative to normal bone marrow) (sDSS (score)); higher = more potent and effective on the cell line relative to normal bone marrow cells;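 note: ALL cell lines in 384-well plates, five doses spanning 10,000-fold, each plate scaled between vehicle and 100 µmol/L benzalkonium chloride controls, sDSS an adapted area-under-curve metric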
# condition.parameters: 72 h
Measured selective drug sensitivity score, listed per entry for reference.
observable: selective drug sensitivity score

INSERT INTO results (molecule, observable, recorded_result) VALUES
  ('CN1CCN(c2nc(C3=C(c4c[nH]c5ccccc45)C(=O)NC3=O)c3ccccc3n2)CC1 [Sotrastaurin] (top concentration 10000 nM)', 'selective drug sensitivity score', -1.7),
  ('O=C(CCCCCCC(=O)Nc1ccc([C@H]2O[C@@H](CSc3nc(-c4ccccc4)c(-c4ccccc4)o3)C[C@@H](c3ccc(CO)cc3)O2)cc1)NO [Tubacin] (top concentration 10000 nM)', 'selective drug sensitivity score', 4.14),
  ('CCCN(CCC)C(=O)C1=Cc2ccc(-c3ccc(C(=O)N4CCCC4)cc3)cc2N=C(N)C1 [Motolimod] (top concentration 10000 nM)', 'selective drug sensitivity score', -2.58);

----------
Measured selective drug sensitivity score, listed per entry for reference.
# System: MOLT-14
# test.protocol: selective drug sensitivity score (sDSS, relative to normal bone marrow) (sDSS (score)); higher = more potent and effective on the cell line relative to normal bone marrow cells
# condition.parameters: 72 h
observable: selective drug sensitivity score

INSERT INTO results (compound, recorded_result) VALUES
  ('CC1=NN(c2ccc(C(=O)O)cc2)C(=O)C1=Cc1ccc(-c2cc(C)c(C)cc2[N+](=O)[O-])o1 [C646] (top concentration 25000 nM)', 3.84),
  ('NC[C@@](O)(c1ccc(Cl)cc1)c1ccc(-c2cn[nH]c2)cc1 (top concentration 10000 nM)', -1.22),
  ('Sc1ncnc2nc[nH]c12 [Mercaptopurine] (top concentration 10000 nM)', 10.9),
  ('C[C@H]1CNCCCN1S(=O)(=O)c1cccc2cncc(F)c12 [Ripasudil] (top concentration 10000 nM)', -0.22),
  ('CN1CCc2c(c3ccccc3n2Cc2ccc(C(=O)NO)cc2)C1 [Tubastatin_A] (top concentration 10000 nM)', 1.06),
  ('Cn1cnc2c(F)c(Nc3ccc(Br)cc3F)c(C(=O)NOCCO)cc21 [Binimetinib] (top concentration 1000 nM)', 4.38),
  ('CC1(C)CC[C@]2(NC(=O)C(C)(F)F)CC[C@]3(C)[C@H](C(=O)C=C4[C@@]5(C)C=C(C#N)C(=O)C(C)(C)[C@@H]5CC[C@]43C)[C@@H]2C1 [Omaveloxolone] (top concentration 10000 nM)', 1.58);

----------
Measured selective drug sensitivity score, listed per entry for reference.
# Test system: PF-382
# test.protocol: selective drug sensitivity score (sDSS, relative to normal bone marrow) (sDSS (score)); higher = more potent and effective on the cell line relative to normal bone marrow cells
# condition.parameters: 72 h
observable: selective drug sensitivity score

INSERT INTO measurements (molecule, observable, recorded_result) VALUES
  ('COc1cccc2c1C(=O)c1c(O)c3c(c(O)c1C2=O)C[C@@](O)(C(=O)CO)C[C@@H]3O[C@H]1C[C@H](N)[C@H](O)[C@H](C)O1 [Doxorubicin] (top concentration 1000 nM)', 'selective drug sensitivity score', 3.08),
  ('COc1cccc(OCCCN)c1-c1cc(Nc2cnc(C#N)cn2)n[nH]1 [Prexasertib] (top concentration 10000 nM)', 'selective drug sensitivity score', 16.9),
  ('CC(C)(C)c1cnc(CSc2cnc(NC(=O)C3CCNCC3)s2)o1 [SNS-032] (top concentration 10000 nM)', 'selective drug sensitivity score', -5.34),
  ('COc1cc(NS(C)(=O)=O)ccc1Nc1c2ccccc2nc2ccccc12 [Amsacrine] (top concentration 10000 nM)', 'selective drug sensitivity score', 10.9),
  ('O=C(Nc1cccc(Nc2ncc(Br)c(NCCc3cnc[nH]3)n2)c1)N1CCCC1 [BX-912] (top concentration 10000 nM)', 'selective drug sensitivity score', 5.06),
  ('C=C(c1ccc(C(=O)O)cc1)c1cc2c(cc1C)C(C)(C)CCC2(C)C [Bexarotene] (top concentration 10000 nM)', 'selective drug sensitivity score', -4.6),
  ('O=C1c2c(O)ccc(O)c2C(=O)c2c(NCCNCCO)ccc(NCCNCCO)c21 [Mitoxantrone] (top concentration 1000 nM)', 'selective drug sensitivity score', -1.86),
  ('CC(C)c1cc(C(=O)N2Cc3ccc(CN4CCN(C)CC4)cc3C2)c(O)cc1O [Onalespib] (top concentration 2500 nM)', 'selective drug sensitivity score', 5.62),
  ('COc1cc2/c(=N/c3ccc(Br)cc3F)nc[nH]c2cc1OCC1CCN(C)CC1 [Vandetanib] (top concentration 1000 nM)', 'selective drug sensitivity score', 0.48),
  ('COc1cc2c(Oc3ccc4[nH]c(C)cc4c3F)ncnc2cc1OCCCN1CCCC1 [Cediranib] (top concentration 1000 nM)', 'selective drug sensitivity score', 0),
  ('CS(=O)(=O)N1CCN(Cc2cc3nc(-c4cccc5[nH]ncc45)nc(N4CCOCC4)c3s2)CC1 [Pictilisib] (top concentration 10000 nM)', 'selective drug sensitivity score', 6.26),
  ('COc1cccc(-c2ccc(NC(=O)C3=C(C(=O)O)CCC3)c(F)c2)c1 [Vidofludimus] (top concentration 10000 nM)', 'selective drug sensitivity score', 4.8),
  ('C/C(=C\c1csc(C)n1)[C@@H]1C[C@@H]2O[C@]2(C)CCC[C@H](C)[C@H](O)[C@@H](C)C(=O)C(C)(C)[C@@H](O)CC(=O)N1 [Ixabepilone] (top concentration 1000 nM)', 'selective drug sensitivity score', 1.68);
